# measured_on: Exportin-1 (Homo sapiens, UniProt O14980)
# Sequence (O14980 whole entry, the tested form may be a part): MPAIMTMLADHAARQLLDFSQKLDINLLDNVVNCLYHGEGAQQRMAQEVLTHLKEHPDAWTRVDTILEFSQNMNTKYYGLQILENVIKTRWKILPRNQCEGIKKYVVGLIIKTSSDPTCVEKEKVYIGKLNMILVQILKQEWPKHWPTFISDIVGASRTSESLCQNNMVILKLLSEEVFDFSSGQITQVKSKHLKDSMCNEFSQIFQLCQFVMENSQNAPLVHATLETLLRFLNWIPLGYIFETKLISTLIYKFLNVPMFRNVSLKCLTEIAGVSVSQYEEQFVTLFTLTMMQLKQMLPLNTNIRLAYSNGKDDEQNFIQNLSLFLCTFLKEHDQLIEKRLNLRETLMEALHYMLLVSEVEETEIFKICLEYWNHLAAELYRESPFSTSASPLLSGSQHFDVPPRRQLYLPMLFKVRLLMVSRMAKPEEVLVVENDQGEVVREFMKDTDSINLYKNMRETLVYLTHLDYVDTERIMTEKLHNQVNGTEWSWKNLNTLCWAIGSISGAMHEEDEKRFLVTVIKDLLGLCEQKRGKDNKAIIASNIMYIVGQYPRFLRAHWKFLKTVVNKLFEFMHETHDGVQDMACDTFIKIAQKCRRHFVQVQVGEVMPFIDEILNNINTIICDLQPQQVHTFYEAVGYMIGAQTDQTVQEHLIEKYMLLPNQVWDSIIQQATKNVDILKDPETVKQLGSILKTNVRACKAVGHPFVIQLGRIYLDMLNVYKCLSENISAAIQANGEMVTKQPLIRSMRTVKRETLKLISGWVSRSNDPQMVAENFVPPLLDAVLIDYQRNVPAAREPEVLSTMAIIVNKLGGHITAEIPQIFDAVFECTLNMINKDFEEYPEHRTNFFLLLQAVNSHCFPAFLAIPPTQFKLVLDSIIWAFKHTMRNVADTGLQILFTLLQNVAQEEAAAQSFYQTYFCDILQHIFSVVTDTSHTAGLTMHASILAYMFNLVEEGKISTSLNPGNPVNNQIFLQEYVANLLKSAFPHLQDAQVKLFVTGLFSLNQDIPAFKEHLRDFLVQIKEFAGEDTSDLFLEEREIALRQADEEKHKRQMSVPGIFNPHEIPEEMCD
pIC50: −log10 of the molar value.
result_type: pIC50

>>> quantitative_readout("CCC(=C/[C@H](C)C/C=C/C(C)=C/[C@@H](C)C(=O)[C@@H](C)[C@H](O)[C@@H](C)C/C(C)=C/C(=O)O)/C=C/[C@@H]1OC(=O)C=C[C@@H]1C [LEPTOMYCIN B]")
6.82

###

# measured_on: Exportin-1 (Homo sapiens, UniProt O14980)
# procedure_text: Inhibition of immobilized HsCRM1-HsRanGTP-HsSPN binding to C-terminal His6-tagged and MBP-fused full length human CRM1 expressed in Escherichia coli SG13009 at 100 nmol incubated for 20 mins by pull-down assay
Calls of active or inactive are those of the source. The rule behind the calls is not given here.
Classes used: YES for active, NO for inactive

>>> assigned_label("COc1cc2cnsc2s1")
"NO"
>>> assigned_label("NC(=O)c1c(NC(NC(=O)c2ccccc2F)(C(F)(F)F)C(F)(F)F)sc2c1CCCC2")
"NO"
>>> assigned_label("COc1cc(-c2nc(S(=O)(=O)c3ccc(Cl)cc3)c(N(C)C)o2)cc(OC)c1OC")
"YES"
>>> assigned_label("CCOC(=O)c1n[nH]c2c1C(=O)N(c1ccc([N+](=O)[O-])cc1)C2=O")
"YES"
